Target: furin, P09958;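 further: purified furin at 1:10 enzyme:substrate in 50 mM HEPES pH 7.5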
Sequence (P09958 whole entry): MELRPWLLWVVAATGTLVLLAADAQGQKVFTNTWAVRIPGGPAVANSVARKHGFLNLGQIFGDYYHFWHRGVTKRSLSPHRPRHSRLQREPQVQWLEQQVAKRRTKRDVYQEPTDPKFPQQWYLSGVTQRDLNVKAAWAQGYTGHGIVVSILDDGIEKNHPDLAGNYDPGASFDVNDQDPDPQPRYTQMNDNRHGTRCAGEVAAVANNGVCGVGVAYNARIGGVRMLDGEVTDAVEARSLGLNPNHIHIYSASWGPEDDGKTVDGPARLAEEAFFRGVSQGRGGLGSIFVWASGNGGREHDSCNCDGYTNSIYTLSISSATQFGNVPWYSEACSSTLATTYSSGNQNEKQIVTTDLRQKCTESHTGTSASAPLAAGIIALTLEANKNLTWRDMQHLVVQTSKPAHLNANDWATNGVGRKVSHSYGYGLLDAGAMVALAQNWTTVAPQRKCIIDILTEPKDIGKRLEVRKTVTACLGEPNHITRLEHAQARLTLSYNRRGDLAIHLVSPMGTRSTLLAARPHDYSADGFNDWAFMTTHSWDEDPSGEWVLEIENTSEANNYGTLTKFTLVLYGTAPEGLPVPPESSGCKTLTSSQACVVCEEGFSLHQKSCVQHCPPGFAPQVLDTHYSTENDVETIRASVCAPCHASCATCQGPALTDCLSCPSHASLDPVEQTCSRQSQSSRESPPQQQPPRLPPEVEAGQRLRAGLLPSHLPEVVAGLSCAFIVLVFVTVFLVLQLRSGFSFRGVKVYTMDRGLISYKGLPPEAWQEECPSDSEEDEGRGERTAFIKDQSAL
Experiment: furin cleavage Z-score vs untreated control; higher = more cleavage, active = 3.5 or more, inactive = 1 or less, 8 variable residues between constant flanks
Conditions: 7.5 min
This is one part of the list. The hit rate among all sequences tested is not known here.
Labels: active, inactive

{"BIOPOLYMER_SEQUENCE": "CARPRRTKKTAGNASASA [DV3]", "ANSWER_LABEL": "inactive"}
{"BIOPOLYMER_SEQUENCE": "CARMDRVKKEAGNASASA [FS-953]", "ANSWER_LABEL": "inactive"}
{"BIOPOLYMER_SEQUENCE": "CARNRRVTRRAGNASASA [FS-2163]", "ANSWER_LABEL": "active"}
{"BIOPOLYMER_SEQUENCE": "CARYRRVITVAGNASASA [FS-1844]", "ANSWER_LABEL": "inactive"}
{"BIOPOLYMER_SEQUENCE": "CAGKSRNKRQAGNASASA [FS-243]", "ANSWER_LABEL": "active"}
{"BIOPOLYMER_SEQUENCE": "CARLRRLAEGAGNASASA [FS-2715]", "ANSWER_LABEL": "inactive"}
{"BIOPOLYMER_SEQUENCE": "CAAKLMPQLPAGNASASA [HC1159]", "ANSWER_LABEL": "inactive"}
{"BIOPOLYMER_SEQUENCE": "CAAGVAGALVAGNASASA [HC1089]", "ANSWER_LABEL": "inactive"}
{"BIOPOLYMER_SEQUENCE": "CAALDRTKRQAGNASASA [FS-579]", "ANSWER_LABEL": "active"}
{"BIOPOLYMER_SEQUENCE": "CAEKRRSADIAGNASASA [FS-2630]", "ANSWER_LABEL": "inactive"}
{"BIOPOLYMER_SEQUENCE": "CARKRRAKREAGNASASA [FS-1650]", "ANSWER_LABEL": "active"}
{"BIOPOLYMER_SEQUENCE": "CARPRRMKREAGNASASA [FS-710]", "ANSWER_LABEL": "active"}
{"BIOPOLYMER_SEQUENCE": "CARNRRHIEKAGNASASA [FS-2283]", "ANSWER_LABEL": "active"}
{"BIOPOLYMER_SEQUENCE": "CARYRRWMKNAGNASASA [FS-2321]", "ANSWER_LABEL": "inactive"}
{"BIOPOLYMER_SEQUENCE": "CASDSRHSRQAGNASASA [FS-1612]", "ANSWER_LABEL": "inactive"}
{"BIOPOLYMER_SEQUENCE": "CARNRRRVCKAGNASASA [FS-2162]", "ANSWER_LABEL": "inactive"}
{"BIOPOLYMER_SEQUENCE": "CAMTGYTGDFAGNASASA [HC881]", "ANSWER_LABEL": "inactive"}
{"BIOPOLYMER_SEQUENCE": "CARNSRFRCRAGNASASA [FS-3013]", "ANSWER_LABEL": "inactive"}
{"BIOPOLYMER_SEQUENCE": "CAVMGRMKREAGNASASA [FS-892]", "ANSWER_LABEL": "active"}
{"BIOPOLYMER_SEQUENCE": "CAIKKRSLRSAGNASASA [FS-1345]", "ANSWER_LABEL": "active"}
{"BIOPOLYMER_SEQUENCE": "CARKARFGSEAGNASASA [FS-2958]", "ANSWER_LABEL": "inactive"}
{"BIOPOLYMER_SEQUENCE": "CAGKGRKYREAGNASASA [FS-125]", "ANSWER_LABEL": "active"}
{"BIOPOLYMER_SEQUENCE": "CASTPCSAHSAGNASASA [HC2577]", "ANSWER_LABEL": "inactive"}
{"BIOPOLYMER_SEQUENCE": "CAAMGRGKRQAGNASASA [FS-1184]", "ANSWER_LABEL": "active"}
{"BIOPOLYMER_SEQUENCE": "CARNRRAFGDAGNASASA [FS-2732]", "ANSWER_LABEL": "active"}
